# SYSTEM_NAME: BCL2 G101V (Homo sapiens, UniProt P10415, G101V)
# ASSAY_NAME: TR-FRET competitive binding assay, BCL2 G101V
# RECORDED_CONDITIONS: BCL2 G101V; Ki determined from IC50; read-out: TR_FRET EKI_Bcl2 G101V
# Procedure: The relative binding potency of each compound was determined in a competitive binding assay using time resolved-fluorescence resonance energy transfer (TR-FRET). […] The degree of binding or corresponding compound inhibition can be quantified by the TR-FRET signal between the terbium donor and fluorescein acceptor. […] TR-FRET measurements were performed on a Biotek Synergy Neo plate reader. […] The TR-FRET signal was calculated as the emission-ratio at 520 nm over 495 nm. […]
Threshold check on Ki: strictly below 0.6 nM is y; on or above 0.6 nM is n.

Example entries and their recorded answers appear below.
>  <MOLECULE>
Cc1c(N(C(=O)c2cc(-c3cc4c(cc3C(=O)N3Cc5ccccc5C[C@H]3CN3CCCCC3)CN(C(=O)Cc3ccc(OCC(C)N5CCOCC5)cc3)CC4)n(C)c2C)c2ccc(O)cc2)cc(C#N)n1C (single isomer, unassigned) [Example 128]

>  <QUALITATIVE_LABEL>
y

$$$$
>  <MOLECULE>
Cc1c(C(=O)N(c2ccc(O)cc2)c2cc(C#N)n(C(F)F)c2C)cc(-c2cc3c(cc2C(=O)N2Cc4ccccc4C[C@H]2CN2CCCCC2)CN(C(=O)Cc2ccc(OCCN4CCOCC4)cc2F)CC3)n1C [Example 78]

>  <QUALITATIVE_LABEL>
y

$$$$
>  <MOLECULE>
Cc1c(C(=O)N(c2ccccc2)c2cc(C#N)n(C(F)F)c2C)cc(-c2cc3c(cc2C(=O)N2Cc4ccccc4C[C@H]2C)CN(C(=O)Cc2ccc(OCCN4CCOCC4)cc2)CC3)n1C [Example 214]

>  <QUALITATIVE_LABEL>
n

$$$$
>  <MOLECULE>
Cc1c(C(=O)N(c2ccc(O)cc2)c2cc(C#N)n(C(F)F)c2C)cc(-c2cc3c(cc2C(=O)N2Cc4ccccc4C[C@H]2CN2CCCCC2)CN(C(=O)Cc2ccc(OCCN(C)C4CC4)cc2)CC3)n1C [Example 163]

>  <QUALITATIVE_LABEL>
n

$$$$
>  <MOLECULE>
Cc1c(C(=O)N(c2ccccc2)c2cnn(C(F)F)c2)cc(-c2cc3c(cc2C(=O)N2Cc4ccccc4C[C@H]2C)CN(C(=O)Cc2ccc(OCCN(C)C)cc2)CC3)n1C [Example 199]

>  <QUALITATIVE_LABEL>
n

$$$$
>  <MOLECULE>
Cc1c(N(C(=O)c2cc(-c3cc4c(cc3C(=O)N3Cc5ccccc5C[C@H]3CN3CCCCC3)CN(C(=O)Cc3ccc(OCCN(C)CC5COC5)cc3F)CC4)n(C)c2C)c2ccc(O)cc2)cc(C#N)n1C [Example 103]

>  <QUALITATIVE_LABEL>
y

$$$$
>  <MOLECULE>
Cc1c(N(C(=O)c2cc(-c3cc4c(cc3C(=O)N3Cc5ccccc5C[C@H]3CN3CCCCC3)CN(C(=O)Cc3ccc(OCCN5CCN(CC(F)F)CC5)cc3)CC4)n(C)c2C)c2ccc(O)cc2)cc(C#N)n1C [Example 112]

>  <QUALITATIVE_LABEL>
y

$$$$
>  <MOLECULE>
Cc1c(C(=O)N(c2ccccc2)c2cnn(C)c2)cc(-c2cc3c(cc2C(=O)N2Cc4ccccc4C[C@H]2C)CN(C(=O)Cc2ccc(OCCN(C)C)cc2F)CC3)n1C [Example 239]

>  <QUALITATIVE_LABEL>
n

$$$$

input: is_below(Ki, 0.6 nM) for Cc1c(N(C(=O)c2cc(-c3cc4c(cc3C(=O)N3Cc5ccccc5C[C@H]3CN3CCCCC3)CN(C(=O)Cc3ccc(OCCN(C)C5COC5)cc3)CC4)n(C)c2C)c2ccc(O)cc2)cc(C#N)n1C [Example 106] ?
output: y

input: Check if Ki falls below 0.6 nM for Cc1c(N(C(=O)c2cc(-c3cc4c(cc3C(=O)N3Cc5ccccc5C[C@H]3C)CN(C(=O)C3Cc5ccccc5O3)CC4)n(C)c2C)c2ccc(O)cc2)cc(C#N)n1C (stereo partly shown) [Example 20] .
output: n

input: State whether 0.6 nM exceeds Ki recorded for Cc1c(N(C(=O)c2cc(-c3cc4c(cc3C(=O)N3Cc5ccccc5C[C@H]3C)CN(C(=O)Cc3ccc(OCCN5C[C@H](C)O[C@@H](C)C5)cc3)CC4)n(C)c2C)c2ccc(O)cc2)cc(C#N)n1C (single isomer, unassigned) [Example 42] .
output: y

###

Each item that follows carries a reported Platelet loss (%) 6 h.
# Tested on: platelets
# ASSAY_NAME: Platelet depletion in SCID mice
# Assay type: in vivo
# RECORDED_CONDITIONS: 25 mg/kg IV bolus, 6 h after dosing, vs control group
Just the number in %, nothing appended.

Solved cases below.
>  <COMPOUND>
COC[C@@H]1Cc2ccccc2CN1C(=O)c1cc2c(cc1-c1cc(C(=O)N(c3ccc(O)cc3)c3cc(C#N)n(C)c3C)c(C)n1C)CCN(C(=O)Cc1ccc(OCCC3CCOCC3)cc1F)C2 [Example 52]

>  <SYSTEM_NAME>
platelets

>  <Platelet loss (%) 6 h>
34.3

$$$$
>  <COMPOUND>
Cc1c(N(C(=O)c2cc(-c3cc4c(cc3C(=O)N3Cc5ccccc5C[C@H]3C)CN(C(=O)Cc3ccc(OCCC5CCOCC5)cc3)CC4)n(C)c2C)c2ccc(O)cc2)cc(C#N)n1C [Example 27]

>  <SYSTEM_NAME>
platelets

>  <Platelet loss (%) 6 h>
18.6

$$$$

Moving on to another compound below.
Memo: Cc1c(N(C(=O)c2cc(-c3cc4c(cc3C(=O)N3Cc5ccccc5C[C@H]3CN3CCCCC3)CN(C(=O)Cc3ccc(OCCC5CCOCC5)cc3F)CC4)n(C)c2C)c2ccc(O)cc2)cc(C#N)n1C [Example 34] , reported Platelet loss (%) 6 h: 33.7

###

Documented pKi across a set of compounds
# SYSTEM_NAME: BCL2 D111A (Homo sapiens, UniProt P10415, D111A)
# ASSAY_NAME: TR-FRET competitive binding assay, BCL2 D111A
# RECORDED_CONDITIONS: Ki determined from IC50, read-out: TR_FRET EKI_Bcl2 D111A
# pKi: negative log10 of molar concentration; output just the value

>  <COMPOUND>
Cc1c(N(C(=O)c2cc(-c3cc4c(cc3C(=O)N3Cc5ccccc5C[C@H]3CN3CCCCC3)CN(C(=O)Cc3ccc(OCC(C)N5CCOCC5)cc3F)CC4)n(C)c2C)c2ccc(O)cc2)cc(C#N)n1C (single isomer, unassigned)

>  <SYSTEM_NAME>
BCL2 D111A (Homo sapiens, UniProt P10415, D111A)

>  <pKi>
9.77

$$$$

Recorded result, Cc1c(N(C(=O)c2cc(-c3cc4c(cc3C(=O)N3Cc5ccccc5C[C@H]3CN3CCCCC3)CN(C(=O)Cc3c(F)cc(OCCN5CCOCC5)cc3F)CC4)n(C)c2C)c2ccc(O)cc2)cc(C#N)n1C , pKi: 9.85

###

# SYSTEM_NAME: BCLXL WT (Homo sapiens (Human), UniProt Q07817)
# Sequence (Q07817 other isoform, or with tags, fused parts or gaps): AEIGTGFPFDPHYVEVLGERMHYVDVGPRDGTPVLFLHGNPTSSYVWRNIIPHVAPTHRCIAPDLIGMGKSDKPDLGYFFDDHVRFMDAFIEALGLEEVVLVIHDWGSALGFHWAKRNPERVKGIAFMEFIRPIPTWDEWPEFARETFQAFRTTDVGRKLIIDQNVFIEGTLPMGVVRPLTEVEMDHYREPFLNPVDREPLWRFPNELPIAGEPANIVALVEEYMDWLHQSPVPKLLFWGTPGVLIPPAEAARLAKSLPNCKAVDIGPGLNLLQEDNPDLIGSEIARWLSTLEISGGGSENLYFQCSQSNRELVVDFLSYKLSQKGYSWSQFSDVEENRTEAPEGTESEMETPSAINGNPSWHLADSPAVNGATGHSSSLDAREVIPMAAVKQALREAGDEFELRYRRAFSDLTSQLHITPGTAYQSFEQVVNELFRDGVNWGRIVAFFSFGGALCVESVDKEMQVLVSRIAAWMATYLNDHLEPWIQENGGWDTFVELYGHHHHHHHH
# ASSAY_NAME: TR-FRET competitive binding assay, BCLXL WT
# RECORDED_CONDITIONS: ratio Ki BCLxL / Ki BCL2 WT
Criterion: TR_FRET EKI BCLxL/WT selectivty ratio strictly under 100. Met: 1. Not met: -1.

Before answering, review these 2 worked examples.
>  <MOLECULE>
COc1ncc(N(C(=O)c2cc(-c3cc4c(cc3C(=O)N3Cc5ccccc5C[C@H]3C)CN(C(=O)Cc3ccc(OCCN(C)C)cc3F)CC4)n(C)c2C)c2ccccc2)cc1F [Example 219]

>  <QUALITATIVE_LABEL>
1

$$$$
>  <MOLECULE>
Cc1c(C(=O)N(c2ccccc2)c2cnn(C(F)F)c2)cc(-c2cc3c(cc2C(=O)N2Cc4ccccc4C[C@H]2C)CN(C(=O)Cc2ccc(OCCN(C)C)cc2)CC3)n1C [Example 199]

>  <QUALITATIVE_LABEL>
-1

$$$$

input: I wonder whether Cc1c(C(=O)N(c2ccccc2)c2cnn(C)c2)cc(-c2cc3c(cc2C(=O)N2Cc4ccccc4C[C@H]2C)CN(C(=O)Cc2ccc(OCCN4CCOCC4)cc2)CC3)n1C [Example 184] has TR_FRET EKI BCLxL/WT selectivty ratio below 100. Can you tell?
output: -1

input: State whether 100 exceeds TR_FRET EKI BCLxL/WT selectivty ratio recorded for Cc1c(N(C(=O)c2cc(-c3cc4c(cc3C(=O)N3Cc5ccccc5C[C@H]3C)CN(C(=O)Cc3ccc(OCCN5CCC(F)CC5)cc3)CC4)n(C)c2C)c2ccc(O)cc2)cc(C#N)n1C [Example 53] .
output: 1

input: Please state whether TR_FRET EKI BCLxL/WT selectivty ratio is below 100 for Cc1c(N(C(=O)c2cc(-c3cc4c(cc3C(=O)N3Cc5ccccc5C[C@H]3CN3CCC[C@H](C)C3)CN(C(=O)Cc3ccc(OCCN(C)C5CC5)cc3)CC4)n(C)c2C)c2ccc(O)cc2)cc(C#N)n1C [Example 139]
output: 1
